Entries and their pEC50 values follow.
Tested on: HMPV clinical isolate TN/1501/A1
Assay: HMPV antiviral assay Method-B (clinical isolate TN/1501/A1 in LLC-MK2 cells, ATP-Lite readout)
Type: cell-based, Human metapneumovirus (HMPV)
Settings: human metapneumovirus, LLC-MK2, 144 h, hMPV WT1501 (clinical isolate TN/1501/A1), 6 days
pEC50: −log10 of the molar value.

Example compounds with recorded pEC50:
>>> observed_measurement("COc1cc(C(=O)NC[C@](O)(c2cc3c(c(-c4ccc(F)c(Cl)c4)n2)OC[C@@]3(CF)C(N)=O)C(F)(F)F)cc2cn(C3CC3)nc12 [Example 1051]")
"< 6.30"
>>> observed_measurement("COc1cc(C(=O)NC[C@](O)(c2cc3c(c(-c4ccc(F)cc4)n2)OC[C@]3(C)C(N)=O)C(F)(F)F)cc2cc(Br)c(C)nc12 [Example 769]")
"> 6.30"
>>> observed_measurement("C[C@]1(C(N)=O)COc2c1cc([C@@](O)(CNC(=O)c1cc(OCC(F)F)c3nn(C4(F)CC4)cc3c1)C(F)(F)F)nc2-c1ccc(F)cc1 [Example 889]")
"< 6.30"

-- ask # returns recorded pEC50 (system: HMPV clinical isolate TN/1501/A1) for COc1cc(C(=O)NC[C@](O)(c2cc3c(c(-c4ccc(F)cc4)n2)OC[C@]3(C)C(N)=O)C2CCC2)cc2cn(C3CC3)nc12 [Example 708]
-- reply > 6.30

###

Tested on: HMPV clinical isolate TN/1501/A1
Experiment: HMPV antiviral assay Method-B (clinical isolate TN/1501/A1 in LLC-MK2 cells, ATP-Lite readout)
Assay type: cell-based, Human metapneumovirus (HMPV)
Conditions: human metapneumovirus, LLC-MK2, 144 h, hMPV WT1501 (clinical isolate TN/1501/A1), 6 days
Experimental: In vitro HMPV antiviral activity was evaluated using the clinical isolate TN/1501/A1 and LLC-MK2 cells (ATCC #CCL-7), an immortalized kidney epithelial cell line from Macaca mulatta. […] The test compounds were assessed in duplicate at a top concentration of 10 μM followed by 3-fold serial dilutions to give a total of 10 concentration points. […] Cells were counted and seeded at a density of 5,000 cells/well, 12.5 μL/well. […]
pEC50: −log10 of the molar value.
REPORTED_ENDPOINT: pEC50

Solved entries (count: 5):
>>> observed_measurement("COc1cc(C(=O)NC[C@](O)(c2cc3c(c(-c4cc(F)c(F)cc4F)n2)OC[C@]3(C)C(N)=O)C2CC2)cc2cc(Br)c(C)nc12")
"> 6.30"
>>> observed_measurement("Cc1cnc2c(OC(F)F)cc(C(=O)NC[C@](O)(c3cc4c(c(-c5ccc(F)cc5)n3)OC[C@]4(C)C(N)=O)C(F)(F)F)cc2c1")
"> 6.30"
>>> observed_measurement("C[C@]1(C(N)=O)COc2c1cc([C@@](O)(CNC(=O)c1cc(OC3CC3)n3nc(C4CC4)cc3c1)C(F)(F)F)nc2-c1csc2c(F)cccc12")
"< 6.30"
>>> observed_measurement("COc1cc(C(=O)NC[C@](O)(c2cc3c(c(-c4ccc(F)c(Cl)c4)n2)OC[C@]3(C(N)=O)C(F)F)C2CC2)cc2cc(Cl)c(C)nc12")
"< 6.30"
>>> observed_measurement("C[C@]1(C(N)=O)COc2c1cc([C@@](O)(CNC(=O)c1cc(Cl)c3nn(C4CC4)cc3c1)C1(F)CC1)nc2-c1csc2c(F)cccc12")
"> 6.30"

// switching to the query compound
-- ask Look up pEC50: COc1cc(C(=O)NC[C@@](O)(c2cc3c(c(-c4cccc(Br)c4F)n2)OC[C@]3(C)C(N)=O)C(F)(F)F)cc2cn(C3CC3)nc12
-- reply < 6.30

###

Tested on: HMPV clinical isolate TN/1501/A1
Assay: HMPV antiviral assay Method-B (clinical isolate TN/1501/A1 in LLC-MK2 cells, ATP-Lite readout)
Type: cell-based, Human metapneumovirus (HMPV)
Conditions: human metapneumovirus, LLC-MK2, 144 h, hMPV WT1501 (clinical isolate TN/1501/A1), 6 days
pEC50: −log10 of the molar value.
Each item that follows carries a reported pEC50.

>>> observed_measurement("Cc1cnc2c(Cl)cc(C(=O)NC[C@](O)(c3cc4c(c(-c5cc(F)c(F)cc5F)n3)OC[C@]4(C)C(N)=O)C(F)(F)F)cc2c1")
"> 6.30"
>>> observed_measurement("COc1cc(C(=O)NC[C@](O)(c2cc3c(c(-c4ccc5c(c4)OC(F)(F)O5)n2)OC[C@]3(C)C(N)=O)C2CC2)cc2cn(C3(Cl)CC3)nc12")
"> 6.30"
>>> observed_measurement("Cc1cnc2c(OC(F)F)cc(C(=O)NC[C@](O)(c3cc4c(c(-c5cc(Cl)c(F)cc5F)n3)OC[C@]4(C)C(N)=O)C3CC3)cc2c1")
"> 6.30"

-- ask Quick one: pEC50 of Cc1nn(-c2ccccc2)cc1C(=O)NC[C@](O)(c1cc2c(c(-c3ccc(F)cc3)n1)OC[C@]2(C)C(N)=O)C1CC1 ?
-- reply < 6.30

-- ask And then COc1cc(C(=O)NC[C@](O)(c2cc3c(c(-c4cc(F)c(F)cc4F)n2)OC[C@]3(C)C(N)=O)C2CC2)cc2cn(C(F)F)nc12 , what is it?
-- reply > 6.30

-- ask Would you mind doing COc1cc(C(=O)NC[C@](O)(c2cc3c(c(-c4c(F)cc(Cl)cc4F)n2)OC[C@]3(C)C(N)=O)C2CC2)cc2cn(C3(F)CC3)nc12 as well?
-- reply > 6.30

-- ask COc1cc(C(=O)NC[C@](O)(c2cc3c(c(-c4ccc(F)cc4)n2)OC[C@@]3(C(N)=O)C(F)F)C(F)(F)F)cc2cc(Cl)c(C)nc12 ?
-- reply > 6.30

-- ask Try the compound COc1cc(C(=O)NC[C@](O)(c2cc3c(c(-c4ccc(F)cc4Cl)n2)OC[C@]3(C)C(N)=O)C2CC2)cc2cn(C3CC3)nc12
-- reply > 6.30

-- ask Now consider Cc1nc2c(OC3CC3)cc(C(=O)NC[C@](O)(c3cc4c(c(-c5ccc(F)cc5)n3)OC[C@]4(C)C(N)=O)C3CC3)cc2cc1Cl .
-- reply > 6.30

-- ask Can you handle COc1cc(C(=O)NC[C@](O)(c2cc3c(c(-c4ccc(OC5CC5)cc4)n2)OC[C@]3(C)C(N)=O)C(F)(F)F)cc2cn(C3CC3)nc12 next?
-- reply < 6.30

-- ask Also COc1cc(C(=O)NC[C@](O)(c2cc3c(c(-c4ccccc4Cl)n2)OC[C@]3(C)C(N)=O)C(F)(F)F)cc2cn(C3CC3)nc12 , if possible.
-- reply > 6.30

-- ask Please do the same for COc1cc(C(=O)NC[C@](O)(c2cc3c(c(-c4ccc(F)c(C#N)c4F)n2)OC[C@]3(C)C(N)=O)C(F)(F)F)cc2cn(C3CC3)nc12 as well.
-- reply > 6.30

###

Test system: HMPV clinical isolate TN/1501/A1
Assay: HMPV antiviral assay Method-B (clinical isolate TN/1501/A1 in LLC-MK2 cells, ATP-Lite readout)
Type: cell-based, Human metapneumovirus (HMPV)
Settings: human metapneumovirus, LLC-MK2, 144 h, hMPV WT1501 (clinical isolate TN/1501/A1), 6 days
pEC50: −log10 of the molar value.
REPORTED_ENDPOINT: pEC50

Would you please look over these solved cases?
>>> observed_measurement("COc1cc(C(=O)NC[C@](O)(c2cc3c(c(-c4ccc(F)c(Cl)c4)n2)OC[C@]3(C)C(N)=O)C2(F)CC2)cc2sc(C)nc12")
"> 6.30"
>>> observed_measurement("COc1cc(C(=O)NC[C@](O)(c2cc3c(c(-c4ccc5c(c4)CC(=O)N5)n2)OC[C@]3(C)C(N)=O)C(F)(F)F)cc2cn(C3CC3)nc12")
"< 6.30"
>>> observed_measurement("COc1cc(C(=O)NC[C@](O)(c2cc3c(c(-c4cc(F)c(Cl)cc4F)n2)OC[C@]3(C)C(N)=O)C(F)(F)F)cc2cn(C3CC3)nc12")
"> 6.30"
>>> observed_measurement("COc1cc(C(=O)NC[C@](O)(c2nc(-c3ccc(F)cc3)c3c(c2F)[C@@](C)(C(N)=O)CO3)C(F)(F)F)cc2cn(C(F)F)nc12")
"> 6.30"
>>> observed_measurement("C[C@]1(C(N)=O)COc2c1cc([C@@](O)(CNC(=O)c1cc(Cl)c3nn(C4CC4)cc3c1)C1CC1)nc2-c1ccc(F)c(F)c1Cl")
"> 6.30"

The record that follows has no pEC50 shown yet.
-- ask Fill in the blank: the reported pEC50 of Cc1cnc2c(OCC(F)F)cc(C(=O)NC[C@](O)(c3cc4c(c(-c5ccc6c(c5)OC(F)(F)O6)n3)OC[C@]4(C)C(N)=O)C3CC3)cc2c1 is ____.
-- reply > 6.30
